- measurement.protocol: NCI Yeast Anticancer Drug Screen. Data for the bub3 strain (AID 167)
- measurement.conditions: S. cerevisiae bub3 mutant strain, at 100.0 µM, hits give high values
The panel holds about 79,000 compounds, 15% with a hit somewhere; the sample as a whole holds those more often.
measured.attribute: growth inhibition (%)

compound | number
CN(C)CCOC1(Cc2ccc(Cl)cc2Cl)CCC(C(C)(C)C)CC1 (stereo unspecified) | 99
CC1CC(C)(C)CC(OCCN2CCCCC2)(c2ccccc2)C1 (stereo unspecified) | 75
CCCCNC1CCC2(SCCS2)c2[nH]c3ccccc3c21 (stereo unspecified) | 3
Cc1cc(-c2cc(C)c(O)c(C(C)(C)C)c2)cc(C(C)(C)C)c1O | 65
CCOC(=O)c1cc([N+](=O)[O-])c(Sc2ncnc3nc[nH]c23)c([N+](=O)[O-])c1 | 88
CC1=C(SCc2ccccc2)C(=O)c2ccccc2C1=O | 90
COC(=O)/C=C(/C(=O)OC)C(Cl)(Cl)Cl | 100
Cc1ccc([N+]2=NC(c3ccccc3)=NN(c3ccccc3)C2)cc1 | 96
Cc1c2cc[n+](Cc3ccc(I)cc3)cc2c(C)c2c1[nH]c1ccccc12 | 89
CCN(CC)Cc1cc(Nc2c3ccccc3nc3c2[nH]c2ccccc23)cc(CN(CC)CC)c1O | 0
O=C(O)CCCC1CCCc2c1ccc1ccccc21 (stereo unspecified) | 99
